Molecular target: UniProt:Q16281
Sequence (Q16281 1-634 limits assumed): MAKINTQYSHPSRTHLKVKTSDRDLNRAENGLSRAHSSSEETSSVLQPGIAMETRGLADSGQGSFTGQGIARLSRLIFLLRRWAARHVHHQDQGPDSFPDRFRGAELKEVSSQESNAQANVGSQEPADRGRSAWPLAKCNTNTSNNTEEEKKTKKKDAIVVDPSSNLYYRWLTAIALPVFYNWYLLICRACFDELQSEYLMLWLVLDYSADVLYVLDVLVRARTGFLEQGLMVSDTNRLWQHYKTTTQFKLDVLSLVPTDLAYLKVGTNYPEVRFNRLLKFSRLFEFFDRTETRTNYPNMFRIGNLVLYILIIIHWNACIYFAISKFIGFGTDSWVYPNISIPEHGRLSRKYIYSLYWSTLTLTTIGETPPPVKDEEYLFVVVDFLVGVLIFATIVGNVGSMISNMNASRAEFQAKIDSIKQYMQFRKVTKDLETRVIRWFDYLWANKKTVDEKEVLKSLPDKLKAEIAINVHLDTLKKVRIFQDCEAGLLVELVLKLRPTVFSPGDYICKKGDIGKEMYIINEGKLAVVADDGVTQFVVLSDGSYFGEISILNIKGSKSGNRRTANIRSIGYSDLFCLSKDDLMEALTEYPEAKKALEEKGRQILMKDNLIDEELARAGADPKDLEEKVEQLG
Assay: Inside-out patch clamp, CNGA3 635X
Conditions: read-out: K1/2 cGMP; +80 mV, no PIPn
reported_property: EC50 (µM)

> print(dat)
                                   compound  system.under.test  numeric.value
1  Nc1nc2c(ncn2[C@@H]2O[C@@H]3COP(=O)(O)O[C@H]3[C@H]2O)c(=O)[nH]1 [cGMP, cyclic guanosine monophosphate]     UniProt:Q16281            8.2

These measurements were taken from paper PMC3607822.
